Source of measurements: PubChem BioAssay AID1259407

tested on: CCRIS mutagenicity, Ames/micronucleus/aberration tests; assay: CCRIS mutagenicity studies; settings: Test System: AMES SALMONELLA TYPHIMURIUM; Strain/Indicator: TA98; Metabolic Activation: NONE; Method: STANDARD PLATE
Activity calls are given as the source filed them. No rule for the calls is given here.
Field 'call' accepts active, inactive

Field: example entries. Status: answers known.
[[record]]
compound = "CC(=O)O[C@H]1[C@@H]2CC(C)(C)CC2=C(C=O)[C@]2(C=O)C[C@]12C"
discrete_label = "inactive"

[[record]]
compound = "C[C@]12C=CC3=C4CCC(=O)C=C4CC[C@H]3[C@@H]1CC[C@H]2O"
discrete_label = "inactive"

[[record]]
compound = "Nc1nc(N)nc(Cl)n1"
discrete_label = "inactive"

[[record]]
compound = "Cc1ccccc1N=Nc1ccc(N=Nc2c(O)ccc3ccccc23)c(C)c1"
discrete_label = "inactive"

[[record]]
compound = "NC(=O)c1ccc(N)cc1"
discrete_label = "inactive"


[Q] State the result this test recorded for O=CN(O)c1ccc(F)cc1 .
[A] inactive

[Q] Subsequent entry: COc1ccc(CN(CC[N+](C)(C)[O-])c2ccccn2)cc1
[A] inactive

[Q] Another: ClCC(Cl)(Cl)Cl
[A] active

[Q] Also need O=[N+]([O-])c1ccc2c(c1)cc([N+](=O)[O-])c1ccccc12 , thanks.
[A] active

[Q] Can you handle C=CC(=O)OCCCCCOC(=O)C=C next?
[A] inactive

[Q] Field entry: Cc1cccnc1
[A] inactive

[Q] What do we get for COC(=O)c1cc(-c2ccc(N)c(C(=O)OC)c2)ccc1N ?
[A] inactive

[Q] Next compound: ClCc1cc2cc3ccccc3c3ccc4cccc1c4c23
[A] active

[Q] # iterate: CCC(=O)Oc1ccc(/C(CC)=C(\CC)c2ccc(OC(=O)CC)cc2)cc1
[A] inactive

[Q] Repeat for the following compound: CC(C)(C)c1cc(-c2ccccc2)ccc1NO
[A] active

[Q] COC1=CC(=O)c2c(ncc3c2[nH]c2ccccc23)C1=O ?
[A] active

[Q] Consider next the compound CCOS(C)(=O)=O in the same way.
[A] inactive

[Q] Cool, now OC(c1ccc(Cl)cc1)(c1ccc(Cl)cc1)C1CC1
[A] inactive

[Q] Same for CCCCCCOCCOCCO
[A] inactive

[Q] Can you handle CC(C)(C)c1cc(Cc2cc(C(C)(C)C)c(O)c(C(C)(C)C)c2)cc(C(C)(C)C)c1O next?
[A] inactive

[Q] Moving on to OC(O)C(Cl)(Cl)Cl
[A] inactive

[Q] Note, next up: CC1(C)CCCC(C)(C)N1[O]
[A] inactive

[Q] Moving on to NC(Cc1ccc(O)cc1)C(=O)O (stereo not drawn)
[A] inactive

[Q] Now this one: CCOC(=O)c1[nH]c2ccccc2c1N=Cc1ccc(C)cc1
[A] inactive

[Q] // next record COc1ccc(O)cc1
[A] inactive

---

tested on: CCRIS mutagenicity, Ames/micronucleus/aberration tests; assay: CCRIS mutagenicity studies; conditions: Test System: E. COLI; Strain/Indicator: WP2 UVRA; Metabolic Activation: NONE; Method: STANDARD PLATE
The source made the active and inactive calls. The rule behind the calls is not given here.
Reply using exactly one outcome from Yes for active, No for inactive

A selection of reference data follows.
[[record]]
compound = "CC(C)=CCC/C(C)=C/CC/C(C)=C/C(=O)OCC(=O)[C@@]1(O)CC[C@H]2[C@@H]3CCC4=CC(=O)C=C[C@]4(C)[C@H]3[C@@H](O)C[C@@]21C"
discrete_label = "No"

[[record]]
compound = "Cc1ccc2nc3c(ccc4ccccc43)c(C)c2c1"
discrete_label = "No"

[[record]]
compound = "CCCCCCCCCCCCOCCO"
discrete_label = "No"

[[record]]
compound = "O=C(O)c1ccc(O)cc1"
discrete_label = "No"

[[record]]
compound = "Clc1cccc(-c2ccc(Cl)c(Cl)c2Cl)c1Cl"
discrete_label = "No"


[Q] Kindly provide the recorded test outcome for the following compound: C1O[C@@H]1[C@@H]1CO1
[A] No

[Q] And then CC(=O)O[C@H]1C[C@@H]2C(COC(=O)CC(C)C)=CO[C@@H](OC(=O)CC(C)C)[C@@H]2[C@@]12CO2 , what is it?
[A] Yes
